Target: STAT3 (Homo sapiens)
Construct: plasmid pSTAT3-TA-luc), which contains a stably operating STAT3 promoter; endogenous in cells
Sequence (P40763 whole entry): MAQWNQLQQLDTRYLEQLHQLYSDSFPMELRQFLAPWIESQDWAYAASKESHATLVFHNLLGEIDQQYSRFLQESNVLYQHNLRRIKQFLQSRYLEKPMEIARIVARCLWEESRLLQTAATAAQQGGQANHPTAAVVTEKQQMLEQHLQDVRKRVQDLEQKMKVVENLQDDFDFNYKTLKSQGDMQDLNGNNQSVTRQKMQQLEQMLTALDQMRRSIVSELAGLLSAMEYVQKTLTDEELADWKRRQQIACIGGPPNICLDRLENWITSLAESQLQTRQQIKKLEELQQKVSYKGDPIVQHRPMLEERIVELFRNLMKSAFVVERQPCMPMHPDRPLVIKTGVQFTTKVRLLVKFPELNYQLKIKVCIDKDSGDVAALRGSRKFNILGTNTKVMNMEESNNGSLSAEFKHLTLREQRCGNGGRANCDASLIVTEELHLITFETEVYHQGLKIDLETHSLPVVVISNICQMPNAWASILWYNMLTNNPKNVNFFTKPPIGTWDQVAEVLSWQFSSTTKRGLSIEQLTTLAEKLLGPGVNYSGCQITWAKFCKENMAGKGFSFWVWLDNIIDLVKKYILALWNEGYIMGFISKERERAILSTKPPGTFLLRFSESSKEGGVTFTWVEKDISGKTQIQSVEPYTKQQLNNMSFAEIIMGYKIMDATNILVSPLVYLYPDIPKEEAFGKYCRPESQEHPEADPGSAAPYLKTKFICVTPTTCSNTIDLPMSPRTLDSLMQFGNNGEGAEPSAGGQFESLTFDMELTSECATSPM
Assay: STAT3 reporter gene assay (luciferase), LNCaP stable cell line (pSTAT3-TA-luc), IL-6 stimulation
Assay type: cell-based
OBSERVABLE: log10(IC50) (log10 of the value in µM)
Give log10 of IC50, with IC50 taken in µM.

MOLECULE	TARGET_SYSTEM	OBSERVABLE	OBSERVED_MEASUREMENT
CC(C)Oc1cc(OC(F)(F)F)cc(C(C)(C)c2cc(Cl)cc(NC(=O)c3cc4cc(N(C)S(C)(=O)=O)c(F)cc4s3)c2)c1	STAT3 (Homo sapiens)	log10(IC50)	-2.70

Below are some molecules; for each one, tell me its log10(IC50).
1. CS(=O)(=O)Nc1ccc2cc(C(=O)Nc3cc(-c4cccnc4)cc(-c4ccc(F)cc4F)c3)[nH]c2c1
2. CS(=O)(=O)Nc1ccc2sc(C(=O)Nc3cc(Br)cc(S(=O)(=O)N4CCc5ccc(F)cc5C4)c3)cc2c1
3. CC(C)Oc1cc(CN2CCN(c3noc(C(C)C)n3)CC2)cc(C(C)(C)c2cc(F)cc(NC(=O)c3cc4cc(NS(C)(=O)=O)ccc4s3)c2)c1
4. CC(C)(c1ccccc1)c1cccc(NC(=O)c2cc3ccc(NS(C)(=O)=O)cc3[nH]2)c1
5. Cc1c(C(=O)Nc2cccc(C(C)(C)c3ccc(F)cc3)c2)sc2cc(NS(C)(=O)=O)ccc12
6. CS(=O)(=O)Nc1ccc2cc(C(=O)Nc3cccc(-c4ccccc4C(F)(F)F)c3)[nH]c2c1

Response given:
1. 0.23
2. -0.08
3. -1.23
4. -0.70
5. -0.26
6. -0.15

Return reported log10(IC50) values for all items listed beneath this line.
1. CC(C)(c1ccc(F)cc1)c1cc(Cl)cc(NC(=O)c2cc3cc(NS(C)(=O)=O)ccc3s2)c1
2. CS(=O)(=O)Nc1ccc2cc(C(=O)Nc3cc(F)cc(-c4ccc(F)cc4F)c3)[nH]c2c1
3. CS(=O)(=O)Nc1ccc2oc(C(=O)Nc3cccc(-c4ccc(F)cc4F)c3)cc2c1
4. CCS(=O)(=O)Nc1ccc2sc(C(=O)Nc3cc(Cl)cc(C(C)(C)c4cc(OC(C)C)cc(OC(F)(F)F)c4)c3)cc2c1
5. CS(=O)(=O)Nc1ccc2c(c1)NC(C(=O)Nc1cccc(-c3ccc(F)cc3C(F)(F)F)c1)C2 (stereo not shown)
6. CN(c1ccc2cc(C(=O)Nc3cc(Br)cc(-c4ccc(F)cc4F)c3)n(C)c2c1)S(C)(=O)=O
7. Nc1ccc2[nH]c(C(=O)Nc3cccc(-c4ccccc4C(F)(F)F)c3)cc2c1

Response given:
1. -1.12
2. -0.62
3. -0.57
4. -2.15
5. 0.72
6. 0.52
7. 0.43
